# assay target: MMP-2 (Gelatinase A) (Homo sapiens)
# Sequence (P08253 110-660): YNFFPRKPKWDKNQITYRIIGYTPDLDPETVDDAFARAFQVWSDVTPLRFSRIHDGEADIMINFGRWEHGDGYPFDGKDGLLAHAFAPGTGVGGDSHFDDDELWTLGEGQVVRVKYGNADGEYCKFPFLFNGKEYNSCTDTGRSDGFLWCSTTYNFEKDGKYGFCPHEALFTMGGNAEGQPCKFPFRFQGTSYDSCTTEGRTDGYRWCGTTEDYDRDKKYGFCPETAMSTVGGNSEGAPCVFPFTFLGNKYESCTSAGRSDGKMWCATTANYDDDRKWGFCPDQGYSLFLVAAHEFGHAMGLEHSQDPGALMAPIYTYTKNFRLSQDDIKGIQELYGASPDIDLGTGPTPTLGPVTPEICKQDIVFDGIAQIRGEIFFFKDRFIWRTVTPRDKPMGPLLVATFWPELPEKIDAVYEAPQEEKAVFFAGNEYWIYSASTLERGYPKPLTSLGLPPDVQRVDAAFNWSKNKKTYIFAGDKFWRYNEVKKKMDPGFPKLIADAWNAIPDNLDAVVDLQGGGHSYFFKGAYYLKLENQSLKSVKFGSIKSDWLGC
pIC50: −log10 of the molar value.
measure: pIC50

compound="CCOc1ccc(-c2ccc(C(=O)CC(CCN3C(=O)c4ccccc4C3=O)C(=O)O)cc2)cc1 (single isomer, unassigned; (+))" assay_target="MMP-2 (Gelatinase A) (Homo sapiens)" measure=pIC50 recorded_value=8.49

====

# assay target: MMP-8 (Neutrophil Collagenase) (Homo sapiens, UniProt P22894)
# Construct: Active recombinant truncated form (met^80-gly^242) was obtained according to the protocol of Knauper
# Sequence (P22894 100-262): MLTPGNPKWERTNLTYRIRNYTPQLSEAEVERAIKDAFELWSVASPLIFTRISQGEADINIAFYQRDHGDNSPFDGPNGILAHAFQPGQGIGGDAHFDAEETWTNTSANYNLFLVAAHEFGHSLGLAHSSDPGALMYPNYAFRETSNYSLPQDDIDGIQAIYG
# procedure details: P218 quenched fluorescence assay, MMP-8
# condition description: read-out: IC50 vs. MMP-8 (value marked *)
# From the text: P218 Quenched Fluorescence Assay for MMP Inhibition: This assay is adapted from the one described by Knight et al., FEBS Letters, 296, 263-266 (1992) for MMP-3 and a related substrate. The rate of hydrolysis of the synthetic substrate H-MCA-Pro-Lys-Pro-Leu-Ala-Leu-DPA-Ala-Arg-NH2 (P218) by the respective MMPs is monitored fluorometrically, using an excitation wavelength of 340 nm and an emission wavelength of 395 nm, in the presence or absence of the test compounds. […]
pIC50: −log10 of the molar value.
measure: pIC50

compound="CCOc1ccc(-c2ccc(C(=O)CC(CCN3C(=O)c4ccccc4C3=O)C(=O)O)cc2)cc1 (single isomer, unassigned; (+))" measure=pIC50 recorded_value=7.67

====

// IC50 collected for MMP-12 (Macrophage Elastase) (Homo sapiens)
measure: IC50

compound="O=C(CC(CCN1C(=O)c2ccccc2C1=O)C(=O)O)c1ccc(-c2ccc(OCc3ccccc3)cc2)cc1 (centres unmarked)" recorded_value="1.6 nM"
compound="CCCCCOc1ccc(-c2ccc(C(=O)CC(CCN3C(=O)c4ccccc4C3=O)C(=O)O)cc2)cc1 (centres unmarked)" recorded_value="2.8 nM"

====

# System: Human alveolar macrophages
# condition description: read-out: IC50, inhibition of MCP-1-induced trafficking of human alveolar macrophages across artificial basement membrane; Matrigel; human MCP-1 5 ng/ml; 48-98 h; + or − lipopolysaccharide
measure: IC50

compound="O=C(c1ccc(-c2ccc(Cl)cc2)cc1)C1CCC(CN2C(=O)c3ccccc3C2=O)C1C(=O)O (stereo not shown)" measure=IC50 recorded_value="≤ 1 µM"

====

# assay target: MMP-7 (Matrilysin) (Homo sapiens, UniProt P09237)
# Sequence (P09237 95-267): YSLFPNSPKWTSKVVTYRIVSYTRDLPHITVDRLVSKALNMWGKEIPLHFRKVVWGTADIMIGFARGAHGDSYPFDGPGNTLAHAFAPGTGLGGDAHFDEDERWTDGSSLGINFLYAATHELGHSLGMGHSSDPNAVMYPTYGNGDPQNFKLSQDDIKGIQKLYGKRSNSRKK
pKi: −log10 of the molar value.
measure: pKi

molecule="O=C(CC(CCN1C(=O)c2ccccc2C1=O)C(=O)O)c1ccc(-c2ccc(Cl)cc2)cc1 (single isomer, unassigned; (+))" recorded_value="< 5.52"

====

# assay target: MMP-13 (Human Collagenase 3) (Homo sapiens)
pIC50: −log10 of the molar value.
measure: pIC50

compound="CCOc1ccc(-c2ccc(C(=O)CC(CCN3C(=O)c4ccccc4C3=O)C(=O)O)cc2)cc1 (single isomer, unassigned; (+))" recorded_value=7.15

====

# assay target: MMP-9 (Gelatinase B) (Homo sapiens, UniProt P14780)
# Construct: polymorphonuclear leukocytes (PMN) preparations are isolated as described above from 3 or more units of freshly drawn whole blood; supernatant purified
# Sequence (P14780 94-707): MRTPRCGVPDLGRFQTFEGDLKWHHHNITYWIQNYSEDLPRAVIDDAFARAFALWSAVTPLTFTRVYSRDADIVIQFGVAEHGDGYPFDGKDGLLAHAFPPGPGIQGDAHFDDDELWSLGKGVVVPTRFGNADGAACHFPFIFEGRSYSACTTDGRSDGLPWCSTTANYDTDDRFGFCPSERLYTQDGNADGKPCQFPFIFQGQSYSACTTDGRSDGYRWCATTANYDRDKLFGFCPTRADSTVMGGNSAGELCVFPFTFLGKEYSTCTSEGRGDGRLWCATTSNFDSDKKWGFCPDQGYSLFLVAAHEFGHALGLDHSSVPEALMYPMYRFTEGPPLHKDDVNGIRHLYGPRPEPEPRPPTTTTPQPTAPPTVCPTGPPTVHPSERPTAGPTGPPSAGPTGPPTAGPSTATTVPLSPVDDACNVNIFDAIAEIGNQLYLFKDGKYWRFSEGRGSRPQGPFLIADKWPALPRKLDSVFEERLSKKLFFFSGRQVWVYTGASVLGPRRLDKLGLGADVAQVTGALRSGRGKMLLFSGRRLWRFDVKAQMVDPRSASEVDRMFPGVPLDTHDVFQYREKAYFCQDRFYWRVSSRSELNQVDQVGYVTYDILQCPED
# procedure details: P218 quenched fluorescence assay, MMP-9
# condition description: read-out: Potency Ki vs. MMP-9
pKi: −log10 of the molar value.
measure: pKi

compound="O=C(CC(CCN1C(=O)c2ccccc2C1=O)C(=O)O)c1ccc(-c2ccc(Cl)cc2)cc1 (single isomer, unassigned; (+)) [Example 4]" assay_target="MMP-9 (Gelatinase B) (Homo sapiens, UniProt P14780)" measure=pKi recorded_value=9.15
compound="CCOc1ccc(-c2ccc(C(=O)CC(CCN3C(=O)c4ccccc4C3=O)C(=O)O)cc2)cc1 (single isomer, unassigned; (+)) [Example 2]" assay_target="MMP-9 (Gelatinase B) (Homo sapiens, UniProt P14780)" measure=pKi recorded_value=8.92

====

# assay target: MMP-8 (Neutrophil Collagenase) (Homo sapiens, UniProt P22894)
# Construct: Active recombinant truncated form (met^80-gly^242) was obtained according to the protocol of Knauper
# procedure details: P218 quenched fluorescence assay, MMP-8
# condition description: read-out: Potency Ki vs. MMP-8
measure: Ki (nM)

molecule="O=C(CC(CCN1C(=O)c2ccccc2C1=O)C(=O)O)c1ccc(-c2ccc(Cl)cc2)cc1 (single isomer, unassigned; (+))" unit_name=nM recorded_value=7.5
